# test-method-notes: Hepatotoxicity in rat hepatocyte assessed as change in GSH level at 30 microg/mL relative to control
# Type: toxicity, cell-based
# experimental-context: hepatocytes, at 30 µg/mL
Exercise: state measured Activity for each of the compounds provided.
In your response, the unit should come after the numeric value.

C[C@H]1O[C@@H](O[C@H]2CC[C@@]3(C)[C@@H](CC[C@]4(C)[C@@H]3C(=O)C=C3[C@@H]5CC(C)(C)CC[C@]5(CO)[C@@H](O)C[C@]34C)[C@]2(C)CO)[C@H](O)[C@@H](O[C@@H]2O[C@H](CO)[C@@H](O)[C@H](O)[C@H]2O)[C@H]1O 90.9%
C[C@H]1O[C@@H](O[C@H]2CC[C@@]3(C)[C@@H](CC[C@]4(C)[C@@H]3[C@H](O)C[C@@H]3C5=CC(C)(C)CC[C@]5(CO)[C@@H](O)C[C@]34C)[C@]2(C)CO)[C@H](O)[C@@H](O[C@@H]2O[C@H](CO)[C@@H](O)[C@H](O)[C@H]2O)[C@H]1O 64.7%
C[C@H]1O[C@@H](O[C@H]2CC[C@@]3(C)[C@@H](CC[C@]4(C)[C@@H]3[C@H](O)C=C3[C@@H]5CC(C)(C)CC[C@]5(CO)[C@@H](O)C[C@]34C)[C@]2(C)CO)[C@H](O)[C@@H](O[C@@H]2O[C@H](CO)[C@@H](O)[C@H](O)[C@H]2O)[C@H]1O 46.5%

Now look at this one.
Reported Activity, compound `CO[C@@H]1C=C2[C@@H]3CC(C)(C)CC[C@]3(CO)[C@@H](O)C[C@@]2(C)[C@]2(C)CC[C@H]3C(C)(C)[C@@H](O[C@@H]4O[C@H](C)[C@H](O)[C@H](O[C@@H]5O[C@H](CO)[C@@H](O)[C@H](O)[C@H]5O)[C@H]4O)CC[C@]3(C)[C@@H]12` : ____
75%
